Target protein (sequence): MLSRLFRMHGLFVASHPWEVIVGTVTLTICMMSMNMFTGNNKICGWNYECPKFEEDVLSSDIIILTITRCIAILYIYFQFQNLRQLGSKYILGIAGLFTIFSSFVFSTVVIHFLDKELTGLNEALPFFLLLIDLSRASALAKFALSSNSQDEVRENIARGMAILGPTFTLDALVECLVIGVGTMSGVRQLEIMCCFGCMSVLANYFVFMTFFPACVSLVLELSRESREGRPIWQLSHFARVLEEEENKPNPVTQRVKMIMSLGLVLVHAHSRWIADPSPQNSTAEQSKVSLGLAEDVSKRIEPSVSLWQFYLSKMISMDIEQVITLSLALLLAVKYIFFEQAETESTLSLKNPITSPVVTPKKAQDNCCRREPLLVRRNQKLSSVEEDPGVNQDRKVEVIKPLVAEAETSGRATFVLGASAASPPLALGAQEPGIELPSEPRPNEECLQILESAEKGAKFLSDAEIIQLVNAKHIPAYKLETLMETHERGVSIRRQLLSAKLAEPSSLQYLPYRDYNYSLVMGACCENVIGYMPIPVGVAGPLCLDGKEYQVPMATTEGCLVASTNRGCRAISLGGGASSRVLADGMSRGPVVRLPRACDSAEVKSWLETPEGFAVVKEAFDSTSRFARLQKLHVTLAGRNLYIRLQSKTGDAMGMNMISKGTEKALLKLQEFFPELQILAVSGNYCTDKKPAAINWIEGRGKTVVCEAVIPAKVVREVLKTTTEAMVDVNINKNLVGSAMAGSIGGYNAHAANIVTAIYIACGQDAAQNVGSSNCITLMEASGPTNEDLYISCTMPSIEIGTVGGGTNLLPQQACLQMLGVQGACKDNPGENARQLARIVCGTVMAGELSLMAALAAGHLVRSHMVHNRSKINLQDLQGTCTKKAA
pIC50: −log10 of the molar value.
Respond with y for pIC50 values of 5 and above, n for values below.

Examples with answers:
compound | category
O=C1C[C@H](O)CC(CCc2cccc3ccccc23)O1 (stereo partly specified) | n
O=C1C[C@H](O)CC(CCc2c(Cl)cc(Cl)c3ccc(Cl)cc23)O1 (stereo partly specified) | y
Cc1ccc2c(C)cc(C)c(CCC3C[C@@H](O)CC(=O)O3)c2c1 (stereo partly specified) | y
O=C1C[C@H](O)CC(CCc2ccc(Cl)c3cc(Cl)ccc23)O1 (stereo partly specified) | y
O=C1C[C@H](O)C[C@@H](/C=C/c2cccc3cccc(Br)c23)O1 | y

Now turn to the next compound.
Item Cc1cc(C)c2ccc(Cl)cc2c1CCC1C[C@@H](O)CC(=O)O1 (stereo partly specified) with pIC50 of 5 or above? y

* * *

Biological target: 3-hydroxy-3-methylglutaryl-coenzyme A reductase (Rattus norvegicus)
Assay: Potency against HMG-CoA reductase relative to Compactin
measured_property: Relative potency
Answers are plain numbers.

Worked examples follow.
molecule | Relative potency
Cc1cc(C)c2ccc(Cl)cc2c1CCC1C[C@@H](O)CC(=O)O1 (some centres undefined) | 7
O=C1C[C@H](O)CC(CCc2c(Cl)cc(Cl)c3cc(Cl)ccc23)O1 (some centres undefined) | 46

I have 2 molecules here; please give me Relative potency for each one.
1. O=C1C[C@H](O)CC(CCc2ccc(Cl)c3cc(Cl)ccc23)O1 (some centres undefined)
2. O=C1C[C@H](O)C[C@@H](/C=C/c2c(Cl)ccc3ccccc23)O1

[0.3, 2.3]
